# assay target: PD-1/PD-L1 (Homo sapiens, UniProt Q9NZQ7)
# Construct: 60535 (PD-1/NFAT-Reporter-Jurkat); Jurkat cells expressing PD-1
# Sequence (Q9NZQ7 19-290): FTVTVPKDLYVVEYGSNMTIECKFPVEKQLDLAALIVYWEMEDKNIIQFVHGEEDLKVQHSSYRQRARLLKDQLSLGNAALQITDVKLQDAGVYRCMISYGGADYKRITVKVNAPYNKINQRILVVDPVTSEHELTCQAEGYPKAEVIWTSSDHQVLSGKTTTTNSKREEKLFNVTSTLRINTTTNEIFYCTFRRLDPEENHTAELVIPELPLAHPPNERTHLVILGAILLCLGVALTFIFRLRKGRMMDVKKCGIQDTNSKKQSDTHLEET
# experimental protocol: Detection of biological activity of PD-1/PD-L1 signaling inhibition at the cellular level (NFAT luciferase reporter, PD-1/NFAT-Reporter-Jurkat cells co-cultured with TCR activator/PD-L1-CHO cells)
# condition label: PD-1/NFAT-Reporter-Jurkat + TCR activator/PD-L1-CHO co-culture, 6 hours; Atezolizumab as positive control
measurement label: EC50 (µM)
Value expressed in µM; do not type the unit.

Item COc1cc(-c2cccc(-c3cccc4c3cnn4Cc3nc(OC)c(CN(C)C45CCC(C(=O)O)(CC4)CC5)cc3Cl)c2C)cc(F)c1CNC[C@@H]1CCC(=O)N1 [Compound 166] ; assay system PD-1/PD-L1 (Homo sapiens, UniProt Q9NZQ7); EC50 reported as 0.049

Item COc1nc(-c2cccc(-c3cccc4c3cnn4Cc3nc(OC)c(CN(C)C45CCC(C(=O)O)(CC4)CC5)cc3Cl)c2C)ccc1CNC[C@@H]1CCC(=O)N1 [Compound 169] ; assay system PD-1/PD-L1 (Homo sapiens, UniProt Q9NZQ7); EC50 reported as 0.059

---
Item COc1cc(Cn2ncc3c(-c4cccc(-c5cc(F)c(CNC[C@@H]6CCC(=O)N6)c(OC)c5)c4Cl)cccc32)c(Cl)cc1CN(C)[C@H]1CC[C@H](C(=O)O)CC1 [Compound 114] ; assay system PD-1/PD-L1 (Homo sapiens, UniProt Q9NZQ7); EC50 reported as 0.014

====

# assay target: PD-1/PD-L1 (Homo sapiens, UniProt Q9NZQ7)
# Construct: 60535 (PD-1/NFAT-Reporter-Jurkat); Jurkat cells expressing PD-1
# experimental protocol: Detection of biological activity of PD-1/PD-L1 signaling inhibition at the cellular level (NFAT luciferase reporter, PD-1/NFAT-Reporter-Jurkat cells co-cultured with TCR activator/PD-L1-CHO cells)
# condition label: PD-1/NFAT-Reporter-Jurkat + TCR activator/PD-L1-CHO co-culture, 6 hours; Atezolizumab as positive control
measurement label: log10 EC50 (log10 of the value in nM)
On a log10 scale: recorded EC50, unit nM.

Please review the following examples before continuing.
Lab book: log10 EC50 of COc1cc(Cn2ncc3c(-c4cccc(-c5ccc(CNC[C@@H]6CCC(=O)N6)cc5)c4Cl)cccc32)c(Cl)cc1CNCC1CCC(C(=O)O)CC1 (some centres unmarked) noted as 2.47

Lab book: log10 EC50 of COc1cc(-c2cccc(-c3cccc4c3cnn4Cc3cc(OC)c(CN(C)C4CCC(C(=O)O)CC4)cc3[N+](=O)[O-])c2Cl)ccc1CNC[C@@H]1CCC(=O)N1 (some centres unmarked) noted as 1.18

Lab book: log10 EC50 of `COc1cc(Cn2ncc3c(-c4cccc(-c5cc(F)c(CNC[C@@H]6CCC(=O)N6)c(OC)c5)c4Cl)cccc32)c([N+](=O)[O-])cc1CN(C)[C@H]1C[C@H](C(=O)O)C1` noted as 1.49

Lab book: log10 EC50 of `COc1cc(Cn2ncc3c(-c4cccc(-c5cc(F)c(CNC[C@@H]6CCC(=O)N6)c(OC)c5)c4Cl)cccc32)c([N+](=O)[O-])cc1CN(C)C12CCC(C(=O)O)(CC1)CC2` noted as 1.71

Now let's try a different one.
Lab book: log10 EC50 of `COc1cc(-c2cccc(-c3c(Cl)ccc4c3cnn4Cc3cc(OC)c(CN[C@@H](CO)C(=O)O)cc3Cl)c2Cl)ccc1CNC[C@@H]1CCC(=O)N1` noted as 2.59
